- ASSAYED_SYSTEM: wild-type Aedes aegypti EcR (AaEcR; GAL4-EcR DEF with VP16-RXR-USP chimera) (Aedes aegypti)
- Sequence (P49880 with tags, fused parts or gaps limits assumed, change not shown): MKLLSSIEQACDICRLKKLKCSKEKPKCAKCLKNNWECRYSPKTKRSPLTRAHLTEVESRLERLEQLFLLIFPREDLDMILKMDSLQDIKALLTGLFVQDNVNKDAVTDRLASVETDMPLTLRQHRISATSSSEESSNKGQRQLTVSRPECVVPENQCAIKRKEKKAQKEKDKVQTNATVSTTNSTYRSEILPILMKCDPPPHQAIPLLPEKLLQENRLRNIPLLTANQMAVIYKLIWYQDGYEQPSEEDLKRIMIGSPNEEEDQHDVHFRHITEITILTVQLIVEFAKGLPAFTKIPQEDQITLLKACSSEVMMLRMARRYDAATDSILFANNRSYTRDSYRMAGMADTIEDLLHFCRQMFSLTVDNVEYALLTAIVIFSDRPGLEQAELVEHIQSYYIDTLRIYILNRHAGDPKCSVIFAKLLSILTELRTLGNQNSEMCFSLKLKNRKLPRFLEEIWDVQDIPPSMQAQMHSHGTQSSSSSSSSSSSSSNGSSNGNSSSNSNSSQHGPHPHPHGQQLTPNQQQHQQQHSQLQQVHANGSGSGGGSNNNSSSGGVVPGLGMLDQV
- RUN_DESCRIPTION: Two-hybrid gene switch assay, luciferase reporter, wild-type AaEcR, mouse NIH3T3 cells
- Assay type: cell-based
- TEST_SETTINGS: FIG. 8, read-out: EC50
ASSAY_READOUT: pEC50
One number for each entry, as −log10 of the molar value.

Input line: // lookup pEC50 for CCCCO[C@H](CCC(C)(C)O)[C@](C)(O)C1CC[C@@]2(O)C3=CC(=O)C4C[C@@H](O)[C@@H](O)CC4(C)C3CCC12C (some centres unmarked) [Compound 8]
Output line: 5.57

Switching to the query record.
Input line: For the molecule CC(C)(O)CC[C@@H](O)[C@](C)(O)[C@H]1CC[C@@]2(O)C3=CC(=O)[C@@H]4C[C@@H](O)[C@@H](O)C[C@]4(C)[C@H]3CC[C@]12C [Compound 25] , what pEC50 is on record?
Output line: 6.03
